test system: HepG2 2.2.15; test: Cytotoxicity against human HepG2.2.15 cells assessed as reduction in cell viability at 100 uM incubated for 4 days prior to compound washout followed by compound addition and measured after 4 days by CCK8 assay relative to control; type: cell-based; conditions: hepg2 2.2.15, 192 h, time 8 day
OBSERVED PROPERTY: Activity (%)
Entry rule: numbers only, all in %.

STRUCTURE NOTATION	UOM	Activity
CCOC(=O)c1cn(-c2cccc(F)c2)nc1SC1CCCCC1	%	18.1
CCOC(=O)c1cn(-c2cccc(F)c2)nc1NC	%	5.7
CCOC(=O)c1cn(-c2nccs2)nc1NCc1ccccc1	%	30.4

// field: Activity; key: O=C(NCc1ccc(F)cc1Cl)c1cn(-c2nccs2)nc1NCc1ccccc1 ; value = 29.2

Given item Nc1ccn([C@@H]2CS[C@H](CO)O2)c(=O)n1 , the value recorded as its Activity is 12.7

---

assay: Selectivity index, ratio of CC50 for human HepG2.2.15 cells to IC50 for antiviral activity against HBV infected in human HepG2.2.15 cells assessed as reduction in HBsAg secretion; format: toxicity, cell-based; conditions: read-out: Ratio CC50/IC50
Readings of selectivity ratio for the listed compounds
Lab note: jot down the number only; don't add units.

STRUCTURE NOTATION	selectivity ratio
CC(C)Cc1sc(-c2nccs2)nc1C(=O)NCc1ccc(F)cc1F	2.2

# input for lookup
The compound identified as CC(C)Cc1sc(-c2nccs2)nc1C(=O)NCc1ccc(F)cc1 registered its selectivity ratio at 1.9

---

experiment: Selectivity index, ratio of CC50 for human HepG2.2.15 cells to IC50 for antiviral activity against HBV infected in human HepG2.2.15 cells assessed as reduction in intracellular viral DNA level; assay type: toxicity, cell-based; details: read-out: Ratio CC50/IC50
We begin with a simple list: items and their reported selectivity ratio.
Lab note: jot down the number only; don't add units.

Some solved cases for reference:
STRUCTURE NOTATION	MEASURED RESULT
CC(C)Cc1sc(-c2nccs2)nc1C(=O)NCc1ccc(F)cc1F	16.8
CC(C)Cc1sc(-c2nccs2)nc1C(=O)NCc1ccc(F)cc1	25.7

Proceeding to the next molecule to report its selectivity ratio.
The molecule listed as CC(C)Cc1sc(-c2nccs2)nc1C(=O)Nc1ccc(F)cc1 shows selectivity ratio equal to 36.7

---

tested on: Hepatitis B virus; test: Antiviral activity against HBV infected in human HepG2.2.15 cells assessed as […] incubated for 4 days prior to compound washout followed by compound addition and measured after 4 days by fluorogenic probe based RT-qPCR analysis; format: functional, organism-based
OBSERVED PROPERTY: IC50
Report the figure along with its unit, number first.

Example cases with answers are listed next.
STRUCTURE NOTATION	STUDY TARGET	OBSERVED PROPERTY	MEASURED RESULT
Nc1ccn([C@@H]2CS[C@H](CO)O2)c(=O)n1	Hepatitis B virus	IC50	0.6 µM
CC(C)Cc1sc(-c2nccs2)nc1C(=O)NCc1ccc(F)cc1F	Hepatitis B virus	IC50	2.7 µM
CC(C)Cc1nc(-c2cccc(F)c2)ncc1C(=O)O	Hepatitis B virus	IC50	9.9 µM

Briefly, IC50 measured for CC(C)Cc1sc(-c2nccs2)nc1C(=O)Nc1ccc(F)cc1 : 2.2 µM

The measured IC50 associated with CC(C)Cc1nc(-c2ccncc2)sc1C(=O)NCc1ccc(F)cc1 reads 40.5 µM

Kindly note the recorded IC50 for CC(C)Cc1sc(-c2nccs2)nc1C(=O)NCc1ccc(F)cc1 , which is 2.3 µM

---

system: Hepatitis B virus; assay: Antiviral activity against HBV infected in human HepG2.2.15 cells assessed as […] at 100 uM incubated for 4 days prior to compound washout followed by compound addition and measured after 4 days by fluorogenic probe based RT-qPCR analysis relative to control; format: functional; settings: HepG2.2.15, 192 h, time 8 day
OBSERVED PROPERTY: inhibition at 100 µM (%)
Form entry: value (%) — number only.

The examples below pair each entry with its known result.
STRUCTURE NOTATION	STUDY TARGET	inhibition at 100 µM / %
CCOC(=O)c1cn(-c2cccc(F)c2)nc1NCc1ccccc1	Hepatitis B virus	14.6
O=C(NC1CC1)c1cn(-c2cccc(F)c2)nc1NCc1ccccc1	Hepatitis B virus	38.8
CC(C)Cc1sc(-c2nccs2)nc1C(=O)NCc1ccc(F)cc1F	Hepatitis B virus	83.8

Now, please, on to the next molecule.
Tested system Hepatitis B virus; inhibition at 100 µM recorded for O=C(NCc1ccc(F)cc1Cl)c1cn(-c2nccs2)nc1NCc1ccccc1 was 41.6

---

test system: HepG2 2.2.15; test: Cytotoxicity against human HepG2.2.15 cells assessed as reduction in cell viability at 50 uM incubated for 4 days prior to compound washout followed by compound addition and measured after 4 days by CCK8 assay relative to control; type: cell-based; settings: hepg2 2.2.15, 192 h, time 8 day
OBSERVED PROPERTY: Activity

Illustrative cases are given below, each with its answer.
STRUCTURE NOTATION	Activity
COC(=O)c1nc(-c2ccccc2OC)cnc1NC(=O)c1ccccc1	5.7%
CC(C)Cc1nc(-c2cccc(F)c2)ncc1C(=O)NCc1ccc(F)cc1	Non-Toxic
CC(C)Cc1nc(-c2ccccc2)ncc1C(=O)NCc1ccccc1	Non-Toxic
CC(C)Cc1nc(-c2cccc(F)c2)ncc1C(=O)O	Non-Toxic
CCOC(=O)c1cnc(-c2cccc(F)c2)nc1CC(C)C	Non-Toxic

Note to self: Activity recorded for CCOC(=O)c1cnc(-c2ccccc2)nc1CC(C)C was Non-Toxic

# Activity (compound: O=C(NCc1ccc(F)cc1)c1ccc(-c2ccccc2)nc1-c1ccccc1 ) is 4.4%

---

assay: Selectivity index, ratio of CC50 for human HepG2.2.15 cells to IC50 for antiviral activity against HBV infected in human HepG2.2.15 cells assessed as reduction in HBeAg secretion; assay type: toxicity, cell-based; details: read-out: Ratio CC50/IC50
selectivity ratio values, listed per item
Please give the numeric answer without any surrounding text.

STRUCTURE NOTATION	selectivity ratio
CC(C)Cc1sc(-c2nccs2)nc1C(=O)NCc1ccc(F)cc1	1.9

CC(C)Cc1sc(-c2nccs2)nc1C(=O)NCc1ccc(F)cc1F yielded selectivity ratio of 1.5

---

assay: Binding affinity to recombinant HBV capsid protein by surface plasmon resonance analysis; parameters: species or system Hepatitis B virus
OBSERVED PROPERTY: pKd
The read-out pKd is expressed as -log10 of concentration in moles per litre.

Briefly, pKd measured for CC(C)Cc1sc(-c2nccs2)nc1C(=O)NCc1ccc(F)cc1 : 4.30

Item: CC(C)Cc1sc(-c2nccs2)nc1C(=O)Nc1ccc(F)cc1 | pKd: 4.22

---

The reader will find reported Activity values listed item by item below.
tested on: HepG2 2.2.15; assay: Cytotoxicity against human HepG2.2.15 cells assessed as reduction in cell viability at 20 uM incubated for 4 days prior to compound washout followed by compound addition and measured after 4 days by CCK8 assay relative to control; format: cell-based; conditions: hepg2 2.2.15, 192 h, time 8 day
Write the value in % as a bare number.

Would you please look over these solved cases?
STRUCTURE NOTATION	UOM	Activity
CC(C)Cc1nc(-c2ccsc2)sc1C(=O)NCc1ccc(F)cc1	%	6.7
CC(C)Cc1nc(NC(=O)c2cccs2)sc1C(=O)NCc1ccc(F)cc1	%	15.2
CC(C)Cc1nc(NC(=O)c2ccc(F)cc2)sc1C(=O)NCc1ccc(F)cc1	%	20.7
CC(C)Cc1nc(-c2ccncc2)sc1C(=O)NCc1ccc(F)cc1	%	35.8
CC(C)Cc1nc(-c2cccs2)sc1C(=O)NCc1ccc(F)cc1	%	17.8

Shifting focus to the molecule that follows.
The reported Activity value, HepG2 2.2.15, for CC(C)Cc1nc(NS(=O)(=O)c2ccc(F)cc2)sc1C(=O)NCc1ccc(F)cc1 reads 17.5

---

Each item that follows carries a reported CC50 at 192 h.
test: Cytotoxicity against human HepG2.2.15 cells assessed as reduction in cell viability incubated for 4 days prior to compound washout followed by compound addition and measured after 4 days by CCK8 assay; type: cell-based, HepG2 2.2.15; conditions: time 8 day

Before answering, review these 2 worked examples.
STRUCTURE NOTATION	CC50 at 192 h
CC(C)Cc1nc(-c2ccncc2)sc1C(=O)NCc1ccc(F)cc1	> 100 µM
Nc1ccn([C@@H]2CS[C@H](CO)O2)c(=O)n1	> 100 µM

# input for lookup
Short answer for CC(C)Cc1nc(-c2cccc(F)c2)ncc1C(=O)O : CC50 at 192 h was > 100 µM

---

tested on: HepG2 2.2.15; assay: Cytotoxicity against human HepG2.2.15 cells assessed as reduction in cell viability at 100 uM incubated for 4 days prior to compound washout followed by compound addition and measured after 4 days by CCK8 assay relative to control; assay type: cell-based; details: hepg2 2.2.15, 192 h, time 8 day
// boundary case: Activity equal to 20% maps to FALSE; strictly smaller maps to TRUE

STRUCTURE NOTATION	STUDY TARGET	LABEL CLASS
O=C(NC1CC1)c1cn(-c2cccc(F)c2)nc1NCc1ccccc1	HepG2 2.2.15	FALSE

Does the reported Activity of CCNc1nn(-c2cccc(F)c2)cc1C(=O)OCC stay below 20%?
TRUE

In plain terms, does CC(C)Cc1sc(-c2nccs2)nc1C(=O)NCc1ccc(F)cc1F come in under 20% for Activity?
FALSE

Activity strictly < 20% for this molecule? CC(C)Cc1sc(-c2nccs2)nc1C(=O)NCc1ccc(F)cc1
FALSE

Please check: Activity for O=C(NCc1ccc(F)cc1F)c1cn(-c2nccs2)nc1NCc1ccccc1 , strictly under 20% or not?
TRUE
